FYI, the data here is from paper PMC8892251.

ASSAY TARGET: SARS-CoV-2 Mpro (Severe acute respiratory syndrome coronavirus 2)
METHOD: biochemical
ASSAY CONTEXT: Mpro; Figure 5, triplicate experiments; read-out: IC50
pIC50: −log10 of the molar value.
QUANTITY: pIC50

>>> print(df.to_string())
                   compound_smiles  test_result
0  O=C1C=CC(=O)c2c1ncc1c2nc2sccn21         6.15

---

ASSAY TARGET: SARS-CoV-2 Mpro (Severe acute respiratory syndrome coronavirus 2, UniProt P0DTD1)
METHOD: biochemical
ASSAY CONTEXT: IC50
QUANTITY: IC50 (nM)

In [3]: df
Out[3]:
                            compound_smiles  measure_unit  test_result
0  CC1=C(N=[N+]=[N-])C(=O)C(C)=C(N=[N+]=[N-])C1=O            nM          723
